System: Rattus norvegicus
Assay: Dose normalised Cmax in rat at 1 mg/kg, iv and 2 mg/kg, po
Type: ADME, organism-based
Settings: in vivo
Exercise: for every item that follows, state its recorded Cmax/dose.
Answer by giving the amount and then stating its unit.

Recorded results for 3 molecules are shown here.
>  <Molecule>
CCCCC[C@@H](Cc1ccc(C(=O)NCCC(=O)O)cc1)C(=O)c1cc2cc(Cl)ccc2n1-c1cccc(C(F)(F)F)c1

>  <Cmax/dose>
330 nM

$$$$
>  <Molecule>
CCC[C@@H](Cc1ccc(C(=O)NCCC(=O)O)cc1)C(=O)c1cc2cc(Cl)ccc2n1-c1cccc(C(F)(F)F)c1

>  <Cmax/dose>
250 nM

$$$$
>  <Molecule>
CCC[C@@H](Cc1ccc(C(=O)NCCC(=O)O)cc1)C(=O)c1cc2cc(Cl)ccc2n1-c1cccc(C(F)(F)F)n1

>  <Cmax/dose>
70 nM

$$$$

[ask] What does the record list as Cmax/dose for CCCC(Cc1ccc(C(=O)NCCC(=O)O)cc1)C(=O)c1cc2cc(Cl)ccc2n1-c1ccc(Cl)c(C(F)(F)F)c1 (single isomer, unassigned) ?
[reply] 150 nM

All figures here come from ChEMBL document CHEMBL1921704.
